measuredTarget: aldosterone synthase (Homo sapiens)
Construct: host or cells: NCI-H295R
Sequence (P19099 25-503): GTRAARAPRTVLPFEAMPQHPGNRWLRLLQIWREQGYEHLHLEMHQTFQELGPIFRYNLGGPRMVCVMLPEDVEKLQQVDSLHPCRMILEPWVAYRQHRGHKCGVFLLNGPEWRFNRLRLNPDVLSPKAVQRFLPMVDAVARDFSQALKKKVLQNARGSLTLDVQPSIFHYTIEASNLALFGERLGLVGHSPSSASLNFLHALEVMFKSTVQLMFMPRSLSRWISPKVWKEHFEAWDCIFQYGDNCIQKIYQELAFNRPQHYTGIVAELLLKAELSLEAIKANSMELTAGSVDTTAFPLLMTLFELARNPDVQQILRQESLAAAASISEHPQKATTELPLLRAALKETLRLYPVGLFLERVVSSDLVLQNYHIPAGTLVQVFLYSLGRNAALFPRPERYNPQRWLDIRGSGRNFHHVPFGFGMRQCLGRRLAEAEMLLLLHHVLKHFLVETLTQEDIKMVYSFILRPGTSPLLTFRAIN
experimentNotes: Aldosterone cell secretion in Ang II-stimulated NCI-H295R cells (SPA with anti-aldosterone antibody)
Format: cell-based
testConditions: human adrenocortical carcinoma NCI-H295R cells, 1 μM Ang II, 24 h; Enantiomer 1
Below is a list of entries, each paired with its recorded IC50 value.

Worked set:
{"columns": ["compound", "IC50"],
 "data": [
  ["CCS(=O)(=O)NC(C)c1cncc(-c2ccc(C#N)c(OC)c2)c1 (single isomer, unassigned)", "64 nM"],
  ["CCS(=O)(=O)NC(c1cncc(-c2ccc(C#N)c(OC)c2)c1)C1CC1 (single isomer, unassigned)", "111 nM"]
]}

Now for a further compound.
Consider the compound CCS(=O)(=O)NC(C)c1cncc(-c2ccc(C#N)c(Cl)c2)c1 (single isomer, unassigned) and give its measured IC50.
49 nM

----------
measuredTarget: CYP11B1 (steroid 11 β-hydroxylase) (Homo sapiens)
Construct: the NCI-H295R cells have CYP11B1 (steroid 11 β-hydroxylase); host or cells: NCI-H295R
experimentNotes: Cortisol cell secretion in NCI-H295R cells (in vitro inhibitory activity for CYP11B1)
Format: cell-based
testConditions: NCI-H295R, compound at 1 μM
propertyMeasured: inhibition at 1 µM (%)
Answer in %, number only, no unit symbol.

These solved cases illustrate the format of a correct answer.
{"columns": ["compound", "propertyMeasured", "valueReported"],
 "data": [
  ["CCS(=O)(=O)N(CCO)C(c1cncc(-c2ccc(C#N)c(Cl)c2)c1)C1CC1 (stereo not drawn)", "inhibition at 1 µM", 51],
  ["CCS(=O)(=O)NC(c1cncc(-c2ccc(C#N)c(OC)c2)c1)C1CC1 (single isomer, unassigned)", "inhibition at 1 µM", 25],
  ["N#Cc1ccc(-c2cncc(NS(=O)(=O)Cc3ccccc3Cl)c2)cc1Cl", "inhibition at 1 µM", 34],
  ["CCS(=O)(=O)N(C)C(c1cncc(-c2ccc(C#N)c(Cl)c2)c1)C1CC1 (stereo not drawn)", "inhibition at 1 µM", 63],
  ["CCS(=O)(=O)N[C@@H](c1cncc(-c2ccc(C#N)c(Cl)c2)c1)C1CC1", "inhibition at 1 µM", 29]
]}

# query: inhibition at 1 µM of entry CCS(=O)(=O)Nc1cncc(-c2ccc(C#N)c(OC)c2)c1
38

Name the reported inhibition at 1 µM value associated with the compound CCS(=O)(=O)NC1CC1c1cncc(-c2cccc(Cl)c2Cl)c1 (stereo not drawn)
75

----------
measuredTarget: aldosterone synthase (Homo sapiens, UniProt P19099)
Construct: host or cells: NCI-H295R
experimentNotes: Aldosterone cell secretion in Ang II-stimulated NCI-H295R cells (SPA with anti-aldosterone antibody)
Format: cell-based
testConditions: human adrenocortical carcinoma NCI-H295R cells, 1 μM Ang II, 24 h
propertyMeasured: IC50 (nM)
Just the number please, in nM, no unit attached.

{"columns": ["molecule", "measuredTarget", "units", "IC50"],
 "data": [
  ["CCCC(NS(=O)(=O)CC)c1cncc(-c2ccc(C#N)c(Cl)c2)c1 (racemic) [N-(1-(5-(3-chloro-4-cyanophenyl)pyridin-3-yl)butyl)ethanesulfonamide: Racemate]", "aldosterone synthase (Homo sapiens, UniProt P19099)", "nM", 132]
]}

// fetch aldosterone synthase (Homo sapiens, UniProt P19099) IC50 for COc1cc(-c2cncc(CNS(C)(=O)=O)c2)ccc1C#N
85

Please provide the recorded IC50 for CCS(=O)(=O)N(CC(C)C)C(c1cncc(-c2ccc(C#N)c(Cl)c2)c1)C1CC1 (stereo not shown) , tested on aldosterone synthase (Homo sapiens, UniProt P19099).
98

So what IC50 did COc1cc(-c2cncc(NS(=O)(=O)C3CC3)c2)ccc1C#N get with aldosterone synthase (Homo sapiens, UniProt P19099)?
77

----------
# inhibition at 1 µM values compiled below
measuredTarget: CYP11B1 (steroid 11 β-hydroxylase) (Homo sapiens, UniProt P15538)
Construct: the NCI-H295R cells have CYP11B1 (steroid 11 β-hydroxylase); host or cells: NCI-H295R
Sequence (P15538 25-503): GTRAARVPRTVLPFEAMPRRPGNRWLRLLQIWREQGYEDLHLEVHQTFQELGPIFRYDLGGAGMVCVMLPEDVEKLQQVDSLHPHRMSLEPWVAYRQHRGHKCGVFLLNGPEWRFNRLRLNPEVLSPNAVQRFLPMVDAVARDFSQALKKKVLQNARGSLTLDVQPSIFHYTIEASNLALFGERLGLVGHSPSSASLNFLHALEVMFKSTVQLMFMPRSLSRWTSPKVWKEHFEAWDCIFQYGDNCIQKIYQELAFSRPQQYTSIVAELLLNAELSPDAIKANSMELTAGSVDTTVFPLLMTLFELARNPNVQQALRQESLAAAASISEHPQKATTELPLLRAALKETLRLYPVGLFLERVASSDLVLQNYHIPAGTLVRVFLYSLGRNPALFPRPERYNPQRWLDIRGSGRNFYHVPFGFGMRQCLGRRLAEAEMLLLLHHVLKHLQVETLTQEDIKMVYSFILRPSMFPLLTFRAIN
experimentNotes: Cortisol cell secretion in NCI-H295R cells (in vitro inhibitory activity for CYP11B1)
Assay type: cell-based
testConditions: NCI-H295R, compound at 1 μM
Description: The in vitro inhibitory activities for CYP11B1 can be determined by the following assay. […] The excretion of aldosterone, cortisol, corticosterone and estradiol/estrone into the culture medium can be detected and quantified by commercially available, specific monoclonal antibodies in radioimmunoassays in accordance with the manufacturer's instructions. […]

Which value of inhibition at 1 µM has been reported for N#Cc1ccc(-c2cncc(CN3CCCS3(=O)=O)c2)cc1Cl in the records?
64%

Could you share which inhibition at 1 µM value was measured for CCS(=O)(=O)NC(C)(C)c1cncc(-c2ccc(C#N)c(Cl)c2)c1 ?
66%

Please give the measured inhibition at 1 µM for this molecule: COc1cc(-c2cncc(NS(=O)(=O)C3CC3)c2)ccc1C#N
32%

----------
measuredTarget: CYP11B1 (steroid 11 β-hydroxylase) (Homo sapiens)
Construct: the NCI-H295R cells have CYP11B1 (steroid 11 β-hydroxylase); host or cells: NCI-H295R
experimentNotes: Cortisol cell secretion in NCI-H295R cells (in vitro inhibitory activity for CYP11B1)
Format: cell-based
testConditions: NCI-H295R, compound at 1 μM
Listing of recorded inhibition at 1 µM by entry.
Answer format: numeric, % implied, no suffix.

Observe how each entry below is paired with its result.
{"columns": ["compound", "units", "valueReported"],
 "data": [
  ["CCS(=O)(=O)NC(c1cncc(-c2ccc(C#N)cc2F)c1)C1CC1 (centres unmarked)", "%", 39],
  ["CCS(=O)(=O)NC(c1cncc(-c2ccc(Cl)cc2)c1)C1CC1 (centres unmarked)", "%", 31],
  ["CCS(=O)(=O)NC(c1ccc(F)cc1)c1cncc(-c2ccc(C#N)c(C)c2)c1 (centres unmarked)", "%", 23]
]}

Return reported inhibition at 1 µM; argument: CCS(=O)(=O)NC(c1cncc(-c2ccc(F)c(Cl)c2)c1)C1CC1 (centres unmarked)
21

Which measured inhibition at 1 µM value corresponds to COc1cc(-c2cncc(CNS(C)(=O)=O)c2)ccc1C#N ?
40

----------
measuredTarget: CYP11B1 (steroid 11 β-hydroxylase) (Homo sapiens, UniProt P15538)
Construct: the NCI-H295R cells have CYP11B1 (steroid 11 β-hydroxylase); host or cells: NCI-H295R
Sequence (P15538 25-503): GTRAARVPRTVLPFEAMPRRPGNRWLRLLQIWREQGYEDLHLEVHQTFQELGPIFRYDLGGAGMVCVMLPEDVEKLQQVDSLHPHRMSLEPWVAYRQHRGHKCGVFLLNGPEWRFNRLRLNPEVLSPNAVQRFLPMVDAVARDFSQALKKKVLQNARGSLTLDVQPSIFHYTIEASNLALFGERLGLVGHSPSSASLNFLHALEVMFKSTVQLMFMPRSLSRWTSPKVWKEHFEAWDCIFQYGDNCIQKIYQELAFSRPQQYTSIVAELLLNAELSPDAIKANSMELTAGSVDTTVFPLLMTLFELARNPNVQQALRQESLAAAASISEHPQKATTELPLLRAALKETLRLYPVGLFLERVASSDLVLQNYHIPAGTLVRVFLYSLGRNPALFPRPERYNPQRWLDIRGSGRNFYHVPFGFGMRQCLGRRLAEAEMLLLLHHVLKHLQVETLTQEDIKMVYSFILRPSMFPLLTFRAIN
experimentNotes: Cortisol cell secretion in NCI-H295R cells (in vitro inhibitory activity for CYP11B1)
Format: cell-based
testConditions: NCI-H295R, compound at 1 μM
propertyMeasured: inhibition at 1 µM (%)
Response body: numeric value in %, unit text excluded.

Recorded results for 5 molecules are shown here.
{"columns": ["molecule", "inhibition at 1 µM / %"],
 "data": [
  ["CCCC(NS(=O)(=O)CC)c1cncc(-c2ccc(C#N)c(Cl)c2)c1 (single isomer, unassigned)", 26],
  ["COc1ccc(S(=O)(=O)Nc2cncc(-c3ccc(C#N)c(Cl)c3)c2)cc1", 74.5],
  ["CCS(=O)(=O)NC(C)c1cncc(-c2ccc(C#N)c(Cl)c2)c1 (single isomer, unassigned)", 53],
  ["CCS(=O)(=O)N(CC(C)C)C(c1cncc(-c2ccc(C#N)c(Cl)c2)c1)C1CC1 (stereo not drawn)", 35],
  ["CCc1ccc(S(=O)(=O)Nc2cncc(-c3ccc(C#N)c(Cl)c3)c2)cc1", 78]
]}

Consider now this further molecule.
Looking for the measured inhibition at 1 µM of CCS(=O)(=O)NC(c1cncc(-c2cccc(Cl)c2Cl)c1)C1CC1 (stereo not drawn) , can you help?
39
